Data origin, for the record: the NIST ThermoML archive (doi:10.1021/je800355e)

- Method Notes: activity coefficient (dimensionless); of the first substance listed, at infinite dilution; xn = mol fraction of the nth substance listed
- Applied Conditions: 313.15 K; 101 kPa; Liquid; Chromatography; x1 = 0
Bucketed by reported activity coefficient, buckets being LOW (below 1), MID (1 to below 4), HIGH (4 or more)

Input line: Just checking, what class would you give CCO [ethanol] + CCCCn1cc[n+](C)c1.F[P-](F)(F)(F)(F)F here?
Output line: MID

Input line: Field: class (activity coefficient) — entry: CCCCO [butan-1-ol] + CCCCCC[n+]1ccn(C)c1.O=S(=O)([N-]S(=O)(=O)C(F)(F)F)C(F)(F)F
Output line: MID

Input line: Lab log: CCCO [propan-1-ol] + CCCCn1cc[n+](C)c1.F[P-](F)(F)(F)(F)F — assign activity coefficient category
Output line: HIGH

Input line: Just checking, what class would you give CC(C)O [propan-2-ol] + CCCCn1cc[n+](C)c1.F[P-](F)(F)(F)(F)F here?
Output line: MID

Input line: Textbook exercise: identify the category of the molecule given here, CC(C)O [propan-2-ol] + CCCCn1cc[n+](C)c1.COS(=O)(=O)[O-] , according to its measured value.
Output line: LOW

Input line: GET /class?item= CC(C)(C)O [2-methylpropan-2-ol] + CCCCn1cc[n+](C)c1.F[P-](F)(F)(F)(F)F
Output line: MID

Input line: State the band of CCC(C)O (stereo unspecified) [butan-2-ol] + CCCCn1cc[n+](C)c1.COS(=O)(=O)[O-]
Output line: MID

Input line: # bin lookup: classify CC(C)(C)O [2-methylpropan-2-ol] + CCCCn1cc[n+](C)c1.COS(=O)(=O)[O-] by its activity coefficient
Output line: MID

Input line: # bin label for CCCCO [butan-1-ol] + CCCCn1cc[n+](C)c1.F[P-](F)(F)(F)(F)F
Output line: HIGH

Input line: # classify by activity coefficient band: CCO [ethanol] + CCCCn1cc[n+](C)c1.COS(=O)(=O)[O-]
Output line: LOW

Input line: The entry to classify is CO [methanol] + CCCCn1cc[n+](C)c1.COS(=O)(=O)[O-] ; which class holds it?
Output line: LOW

Input line: Class? Entry: CC(C)CO [2-methyl-1-propanol] + CCCCn1cc[n+](C)c1.F[P-](F)(F)(F)(F)F
Output line: HIGH

Input line: Tag the class for CCCO [propan-1-ol] + CCCCn1cc[n+](C)c1.COS(=O)(=O)[O-]
Output line: LOW

Input line: Band for CC(C)CO [2-methyl-1-propanol] + CCCCn1cc[n+](C)c1.COS(=O)(=O)[O-] ?
Output line: MID

Input line: Given CO [methanol] + CCCCn1cc[n+](C)c1.F[P-](F)(F)(F)(F)F , name the class its activity coefficient places it in.
Output line: MID

Input line: Band for the recorded activity coefficient of CCC(C)O (stereo unspecified) [butan-2-ol] + CCCCn1cc[n+](C)c1.F[P-](F)(F)(F)(F)F ?
Output line: HIGH

====

- Method Notes: activity coefficient (dimensionless); of the first substance listed, at infinite dilution; xn = mol fraction of the nth substance listed
- Applied Conditions: 293.15 K; 101 kPa; Liquid; Chromatography; x1 = 0
Reported Metric: activity coefficient
Just the number, please, no unit attached.

Input line: Provide measured activity coefficient value, entry: CC(C)CO [2-methyl-1-propanol] + CCCCn1cc[n+](C)c1.F[P-](F)(F)(F)(F)F
Output line: 8.39

Input line: Given CCCCO [butan-1-ol] + CCCCn1cc[n+](C)c1.F[P-](F)(F)(F)(F)F , respond with its activity coefficient.
Output line: 8.17

Input line: Read off the recorded activity coefficient for CCC(C)O (stereo unspecified) [butan-2-ol] + CCCCn1cc[n+](C)c1.F[P-](F)(F)(F)(F)F
Output line: 6.47

Input line: Note down activity coefficient recorded for CCCO [propan-1-ol] + CCCCn1cc[n+](C)c1.F[P-](F)(F)(F)(F)F
Output line: 5.53

Input line: Supply activity coefficient value. Item: CCCCO [butan-1-ol] + CCCCCC[n+]1ccn(C)c1.O=S(=O)([N-]S(=O)(=O)C(F)(F)F)C(F)(F)F
Output line: 2.5

Input line: Give activity coefficient for CC(C)O [propan-2-ol] + CCCCCC[n+]1ccn(C)c1.O=S(=O)([N-]S(=O)(=O)C(F)(F)F)C(F)(F)F
Output line: 1.95

Input line: Fill in activity coefficient for record CCC(C)O (stereo unspecified) [butan-2-ol] + CCCCCC[n+]1ccn(C)c1.O=S(=O)([N-]S(=O)(=O)C(F)(F)F)C(F)(F)F
Output line: 2.03

Input line: Identify measured activity coefficient corresponding to CCO [ethanol] + CCCCn1cc[n+](C)c1.F[P-](F)(F)(F)(F)F
Output line: 3.81

Input line: Assign activity coefficient to the following record: CO [methanol] + CCCCn1cc[n+](C)c1.F[P-](F)(F)(F)(F)F
Output line: 2.59

Input line: Answer with the recorded activity coefficient of CC(C)O [propan-2-ol] + CCCCn1cc[n+](C)c1.F[P-](F)(F)(F)(F)F only.
Output line: 4.8

Input line: Give recorded activity coefficient. CC(C)(C)O [2-methylpropan-2-ol] + CCCCn1cc[n+](C)c1.F[P-](F)(F)(F)(F)F
Output line: 4.83
